Target: σ2 receptor (Rattus norvegicus)
Sequence (Q5U3Y7 whole entry): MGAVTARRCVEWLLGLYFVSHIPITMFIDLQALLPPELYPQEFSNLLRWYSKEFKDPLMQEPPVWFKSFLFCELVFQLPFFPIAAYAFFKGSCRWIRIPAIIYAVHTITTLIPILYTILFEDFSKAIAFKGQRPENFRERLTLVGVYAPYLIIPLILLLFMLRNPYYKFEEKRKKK
Assay: σ2 receptor binding assay, [3H]DTG, rat liver membrane homogenates
Parameters: conducted using rat liver membrane homogenates; from tissue; host or cells: rat liver membrane homogenates
Conditions: Table 4, Ki values of VAChT specific compounds; tissue not given; read-out: Sigma-2 σ1
Readout label: Ki (µM)

P: COc1ccc(C(=O)C2CCN(C3Cc4ccccc4CC3O)CC2)cc1 (stereo not drawn)
Q: COc1ccc(C(=O)C2CCN(C3CN(C(=O)c4cccs4)CCC3O)CC2)cc1 (stereo not drawn)
R: Nc1cccc2c1CC(N1CCC(C(=O)c3ccc(F)cc3)CC1)C(O)C2 (single isomer, unassigned) [WW-1-88-1]
[Q] In a descending ranking, list each entry from above by its Ki, from the largest value down to the smallest. Write the labels in rank order as requested.
[A] R, Q, P
